- target or test system: Voltage-gated inwardly rectifying potassium channel KCNH2 (Homo sapiens)
- Sequence (Q12809 whole entry): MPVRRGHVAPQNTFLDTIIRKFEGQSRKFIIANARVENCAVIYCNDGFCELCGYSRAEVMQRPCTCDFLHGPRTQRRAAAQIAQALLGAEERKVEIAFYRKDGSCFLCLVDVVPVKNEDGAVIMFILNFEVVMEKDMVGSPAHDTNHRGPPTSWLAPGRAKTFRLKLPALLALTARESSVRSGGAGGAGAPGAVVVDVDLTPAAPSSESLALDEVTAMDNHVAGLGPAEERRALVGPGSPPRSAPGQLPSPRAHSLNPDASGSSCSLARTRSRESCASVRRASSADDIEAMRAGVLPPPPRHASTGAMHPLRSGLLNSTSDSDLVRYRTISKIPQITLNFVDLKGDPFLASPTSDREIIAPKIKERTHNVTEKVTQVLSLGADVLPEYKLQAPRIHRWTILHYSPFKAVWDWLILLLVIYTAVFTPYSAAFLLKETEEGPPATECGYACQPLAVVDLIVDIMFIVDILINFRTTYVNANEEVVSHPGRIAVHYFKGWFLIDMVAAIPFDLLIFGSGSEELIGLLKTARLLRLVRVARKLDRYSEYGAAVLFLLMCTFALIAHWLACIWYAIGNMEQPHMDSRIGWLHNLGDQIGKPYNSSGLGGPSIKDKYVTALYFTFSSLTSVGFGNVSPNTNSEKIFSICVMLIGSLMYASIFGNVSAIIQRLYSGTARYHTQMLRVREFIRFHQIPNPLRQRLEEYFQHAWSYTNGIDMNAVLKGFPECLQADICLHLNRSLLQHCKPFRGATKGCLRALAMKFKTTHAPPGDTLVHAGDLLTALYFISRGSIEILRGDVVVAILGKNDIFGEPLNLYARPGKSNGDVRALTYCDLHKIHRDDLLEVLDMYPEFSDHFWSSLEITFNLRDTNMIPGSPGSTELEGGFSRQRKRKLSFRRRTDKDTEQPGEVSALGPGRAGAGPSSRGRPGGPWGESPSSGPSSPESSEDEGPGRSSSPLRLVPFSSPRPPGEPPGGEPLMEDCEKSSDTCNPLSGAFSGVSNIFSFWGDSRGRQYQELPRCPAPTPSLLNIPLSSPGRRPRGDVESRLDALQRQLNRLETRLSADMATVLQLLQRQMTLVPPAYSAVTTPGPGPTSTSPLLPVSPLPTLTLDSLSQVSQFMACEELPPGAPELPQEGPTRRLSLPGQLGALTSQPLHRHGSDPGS
measured attribute: IC50

[
  {
    "compound smiles": "C[C@H](NC(=O)c1cnc(-c2ccc(S(C)(=O)=O)cc2)s1)c1cn(-c2cc(C(F)(F)F)ccn2)nn1",
    "target or test system": "Voltage-gated inwardly rectifying potassium channel KCNH2 (Homo sapiens)",
    "reported value": "> 30 µM"
  }
]

====

- method description: Tmax in male BALB/c mouse at 10 mg/kg, po single administration measured upto 72 hrs by LC-MS/MS analysis
- Format: ADME, organism-based
- assay conditions: in vivo
Recorded Tmax by entry
measured attribute: Tmax

[
  {
    "compound smiles": "C[C@H](NC(=O)c1cnc(-c2ccc(S(C)(=O)=O)cc2)s1)c1cn(-c2cc(C(F)(F)F)ccn2)nn1",
    "measured attribute": "Tmax",
    "reported value": "24 h"
  },
  {
    "compound smiles": "CS(=O)(=O)c1ccc(-c2nc(C(=O)NCc3cn(-c4cc(Br)ccn4)nn3)cs2)cc1",
    "measured attribute": "Tmax",
    "reported value": "1.17 h"
  },
  {
    "compound smiles": "CS(=O)(=O)c1ccc(-c2ncc(C(=O)NCc3cn(-c4cc(C(F)(F)F)ccn4)nn3)s2)cc1",
    "measured attribute": "Tmax",
    "reported value": "2 h"
  },
  {
    "compound smiles": "C[C@@H](NC(=O)c1cnc(-c2ccc(S(C)(=O)=O)cc2)s1)c1cn(-c2cc(C(F)(F)F)ccn2)nn1",
    "measured attribute": "Tmax",
    "reported value": "2.33 h"
  }
]

====

- method description: Clearance in male BALB/c mouse at 10 mg/kg, po single administration measured upto 72 hrs by LC-MS/MS analysis
- Format: ADME, organism-based
- assay conditions: in vivo
measured attribute: log10 CL/F (log10 of the value in mL/min/kg)

[
  {
    "compound smiles": "C[C@@H](NC(=O)c1csc(-c2ccc(S(C)(=O)=O)cc2)n1)c1cn(-c2cc(C(F)(F)F)ccn2)nn1",
    "log10 CL/F": 0.22
  },
  {
    "compound smiles": "C[C@@H](NC(=O)c1cnc(-c2ccc(S(C)(=O)=O)cc2)s1)c1cn(-c2cc(C(F)(F)F)ccn2)nn1",
    "log10 CL/F": 0.34
  },
  {
    "compound smiles": "C[C@H](NC(=O)c1csc(-c2ccc(S(C)(=O)=O)cc2)n1)c1cn(-c2cc(C(F)(F)F)ccn2)nn1",
    "log10 CL/F": 0.18
  },
  {
    "compound smiles": "CS(=O)(=O)c1ccc(-c2nc(C(=O)NCc3cn(-c4cc(C(F)(F)F)ccn4)nn3)cs2)cc1",
    "log10 CL/F": 0.52
  },
  {
    "compound smiles": "CS(=O)(=O)c1ccc(-c2nc(C(=O)NCc3cn(-c4cc(Br)ccn4)nn3)cs2)cc1",
    "log10 CL/F": 1.41
  },
  {
    "compound smiles": "CS(=O)(=O)c1ccc(-c2ncc(C(=O)NCc3cn(-c4cc(C(F)(F)F)ccn4)nn3)s2)cc1",
    "log10 CL/F": 1.07
  }
]

====

Here the recorded remaining at 2 h, 1 µM is given for each entry.
- target or test system: CYP2E1 (Homo sapiens)
- Sequence (P05181 whole entry): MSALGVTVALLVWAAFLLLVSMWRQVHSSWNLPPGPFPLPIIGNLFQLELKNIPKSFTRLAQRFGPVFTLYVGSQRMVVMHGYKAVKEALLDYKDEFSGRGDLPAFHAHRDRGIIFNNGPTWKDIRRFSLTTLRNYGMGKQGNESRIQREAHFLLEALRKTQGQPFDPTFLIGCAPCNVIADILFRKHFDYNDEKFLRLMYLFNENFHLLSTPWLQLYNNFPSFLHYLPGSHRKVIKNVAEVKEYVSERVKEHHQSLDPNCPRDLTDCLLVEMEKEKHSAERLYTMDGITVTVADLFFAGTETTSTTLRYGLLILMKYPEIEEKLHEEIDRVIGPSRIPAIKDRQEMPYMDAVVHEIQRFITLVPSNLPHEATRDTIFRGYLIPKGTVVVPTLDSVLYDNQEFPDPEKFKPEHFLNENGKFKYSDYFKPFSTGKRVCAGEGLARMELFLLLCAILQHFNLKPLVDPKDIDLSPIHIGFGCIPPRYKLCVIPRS
- method description: Inhibition of CYP2E1 in human liver microsomes assessed as compound remaining at 1 uM measured after 2 hrs incubation by LC-MS/MS analysis
- Type: ADME, Microsome
- assay conditions: read-out: Activity

[
  {
    "compound smiles": "C[C@@H](NC(=O)c1cnc(-c2ccc(S(C)(=O)=O)cc2)s1)c1cn(-c2cc(C(F)(F)F)ccn2)nn1",
    "remaining at 2 h, 1 µM / %": 84.2
  },
  {
    "compound smiles": "C[C@H](NC(=O)c1cnc(-c2ccc(S(C)(=O)=O)cc2)s1)c1cn(-c2cc(C(F)(F)F)ccn2)nn1",
    "remaining at 2 h, 1 µM / %": 100
  }
]

====

- method description: Metabolic stability in mouse liver microsomes assessed as half life
- Format: ADME, Microsome
half-life values for the compounds below.
measured attribute: half-life (min)

[
  {
    "compound smiles": "CS(=O)(=O)c1ccc(-c2nc(C(=O)NCc3cn(-c4cc(C(F)(F)F)ccn4)nn3)cs2)cc1",
    "censoring operator": ">",
    "reported value": 120
  },
  {
    "compound smiles": "CS(=O)(=O)c1ccc(-c2nc(C(=O)NCc3cn(-c4cc(N5CCC(F)(F)CC5)ccn4)nn3)cs2)cc1",
    "censoring operator": "=",
    "reported value": 20
  },
  {
    "compound smiles": "CS(=O)(=O)c1ccc(-c2ncc(C(=O)NCc3cn(-c4cc(NC5CC(F)(F)C5)ccn4)nn3)s2)cc1",
    "censoring operator": "=",
    "reported value": 40.2
  },
  {
    "compound smiles": "C[C@H](NC(=O)c1csc(-c2ccc(S(C)(=O)=O)cc2)n1)c1cn(-c2cc(C(F)(F)F)ccn2)nn1",
    "censoring operator": ">",
    "reported value": 120
  },
  {
    "compound smiles": "C[C@H](NC(=O)c1cnc(-c2ccc(S(C)(=O)=O)cc2)s1)c1cn(-c2cc(C(F)(F)F)ccn2)nn1",
    "censoring operator": ">",
    "reported value": 120
  },
  {
    "compound smiles": "CS(=O)(=O)c1ccc(-c2nc(C(=O)NCc3cn(-c4cc(NC5CC(F)(F)C5)ccn4)nn3)cs2)cc1",
    "censoring operator": "=",
    "reported value": 32.8
  },
  {
    "compound smiles": "C[C@@H](NC(=O)c1csc(-c2ccc(S(C)(=O)=O)cc2)n1)c1cn(-c2cc(C(F)(F)F)ccn2)nn1",
    "censoring operator": ">",
    "reported value": 120
  },
  {
    "compound smiles": "C[C@@H](NC(=O)c1cnc(-c2ccc(S(C)(=O)=O)cc2)s1)c1cn(-c2cc(C(F)(F)F)ccn2)nn1",
    "censoring operator": ">",
    "reported value": 120
  },
  {
    "compound smiles": "CS(=O)(=O)c1ccc(-c2ncc(C(=O)NCc3cn(-c4cc(N5CCC(F)(F)CC5)ccn4)nn3)s2)cc1",
    "censoring operator": "=",
    "reported value": 59.2
  },
  {
    "compound smiles": "CS(=O)(=O)c1ccc(-c2ncc(C(=O)NCc3cn(-c4cc(C(F)(F)F)ccn4)nn3)s2)cc1",
    "censoring operator": ">",
    "reported value": 120
  }
]

====

- target or test system: CYP2D6 (Homo sapiens)
- Sequence (P10635 whole entry): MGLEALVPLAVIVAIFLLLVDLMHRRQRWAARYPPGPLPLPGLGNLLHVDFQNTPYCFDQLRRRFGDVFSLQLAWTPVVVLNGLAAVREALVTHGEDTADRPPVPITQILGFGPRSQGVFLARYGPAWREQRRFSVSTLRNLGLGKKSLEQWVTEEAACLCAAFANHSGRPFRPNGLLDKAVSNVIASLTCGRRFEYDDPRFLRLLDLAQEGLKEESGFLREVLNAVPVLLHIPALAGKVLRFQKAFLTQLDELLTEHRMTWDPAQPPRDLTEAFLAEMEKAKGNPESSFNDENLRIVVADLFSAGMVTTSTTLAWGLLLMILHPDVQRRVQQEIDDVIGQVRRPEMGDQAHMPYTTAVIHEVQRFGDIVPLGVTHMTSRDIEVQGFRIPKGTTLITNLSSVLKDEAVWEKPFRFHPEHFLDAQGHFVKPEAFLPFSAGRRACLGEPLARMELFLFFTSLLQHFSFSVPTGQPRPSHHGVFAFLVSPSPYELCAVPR
- method description: Inhibition of CYP2D6 in human liver microsomes assessed as compound remaining at 1 uM measured after 2 hrs incubation by LC-MS/MS analysis
- Format: ADME, Microsome
- assay conditions: read-out: Activity
measured attribute: remaining at 2 h, 1 µM

[
  {
    "compound smiles": "C[C@H](NC(=O)c1cnc(-c2ccc(S(C)(=O)=O)cc2)s1)c1cn(-c2cc(C(F)(F)F)ccn2)nn1",
    "reported value": "100%"
  },
  {
    "compound smiles": "C[C@@H](NC(=O)c1cnc(-c2ccc(S(C)(=O)=O)cc2)s1)c1cn(-c2cc(C(F)(F)F)ccn2)nn1",
    "reported value": "84.2%"
  }
]

====

- target or test system: UniProt:Q9Z1M0
- Sequence (Q9Z1M0 whole entry): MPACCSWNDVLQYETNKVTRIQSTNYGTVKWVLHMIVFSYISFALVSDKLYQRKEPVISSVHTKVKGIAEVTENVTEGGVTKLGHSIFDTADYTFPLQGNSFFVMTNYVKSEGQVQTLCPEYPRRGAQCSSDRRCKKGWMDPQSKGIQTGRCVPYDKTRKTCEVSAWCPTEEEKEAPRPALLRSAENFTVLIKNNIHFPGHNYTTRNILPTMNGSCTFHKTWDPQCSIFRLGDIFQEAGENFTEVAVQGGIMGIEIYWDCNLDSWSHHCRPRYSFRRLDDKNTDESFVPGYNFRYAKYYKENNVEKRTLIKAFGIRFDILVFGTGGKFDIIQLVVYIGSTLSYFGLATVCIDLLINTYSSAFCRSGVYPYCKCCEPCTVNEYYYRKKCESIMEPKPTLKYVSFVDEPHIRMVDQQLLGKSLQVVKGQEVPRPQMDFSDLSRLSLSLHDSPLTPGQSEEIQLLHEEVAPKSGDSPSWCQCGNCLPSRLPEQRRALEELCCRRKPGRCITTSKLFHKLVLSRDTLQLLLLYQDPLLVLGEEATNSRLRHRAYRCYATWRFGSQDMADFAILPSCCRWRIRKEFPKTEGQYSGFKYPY
- method description: Antagonist activity against mouse P2X7 receptor expressed in ATP-stimulated HEK293 cells assessed as influx of PI by fluorescence dye uptake assay relative to control
pIC50: −log10 of the molar value.
measured attribute: pIC50

[
  {
    "compound smiles": "CS(=O)(=O)c1ccc(-c2nc(C(=O)NCc3cn(-c4cc(NC5CC(F)(F)C5)ccn4)nn3)cs2)cc1",
    "measured attribute": "pIC50",
    "reported value": 7.26
  },
  {
    "compound smiles": "C[C@@H](NC(=O)c1cnc(-c2ccc(S(C)(=O)=O)cc2)s1)c1cn(-c2cc(C(F)(F)F)ccn2)nn1",
    "measured attribute": "pIC50",
    "reported value": 7.26
  },
  {
    "compound smiles": "CS(=O)(=O)c1ccc(-c2ncc(C(=O)NCc3cn(-c4cc(NC5CC(F)(F)C5)ccn4)nn3)s2)cc1",
    "measured attribute": "pIC50",
    "reported value": 6.86
  },
  {
    "compound smiles": "C[C@H](NC(=O)c1csc(-c2ccc(S(C)(=O)=O)cc2)n1)c1cn(-c2cc(C(F)(F)F)ccn2)nn1",
    "measured attribute": "pIC50",
    "reported value": 7.01
  },
  {
    "compound smiles": "CS(=O)(=O)c1ccc(-c2nc(C(=O)NCc3cn(-c4cc(C(F)(F)F)ccn4)nn3)cs2)cc1",
    "measured attribute": "pIC50",
    "reported value": 7.15
  },
  {
    "compound smiles": "CS(=O)(=O)c1ccc(-c2nc(C(=O)NCc3cn(-c4cc(N5CCC(F)(F)CC5)ccn4)nn3)cs2)cc1",
    "measured attribute": "pIC50",
    "reported value": 6.99
  },
  {
    "compound smiles": "C[C@@H](NC(=O)c1csc(-c2ccc(S(C)(=O)=O)cc2)n1)c1cn(-c2cc(C(F)(F)F)ccn2)nn1",
    "measured attribute": "pIC50",
    "reported value": 6.78
  },
  {
    "compound smiles": "CS(=O)(=O)c1ccc(-c2ncc(C(=O)NCc3cn(-c4cc(C(F)(F)F)ccn4)nn3)s2)cc1",
    "measured attribute": "pIC50",
    "reported value": 7.09
  },
  {
    "compound smiles": "CS(=O)(=O)c1ccc(-c2nc(C(=O)NCc3cn(-c4cc(-c5cccc(C(F)(F)F)c5)ccn4)nn3)cs2)cc1",
    "measured attribute": "pIC50",
    "reported value": 6.35
  },
  {
    "compound smiles": "C[C@H](NC(=O)c1cnc(-c2ccc(S(C)(=O)=O)cc2)s1)c1cn(-c2cc(C(F)(F)F)ccn2)nn1",
    "measured attribute": "pIC50",
    "reported value": 7.60
  },
  {
    "compound smiles": "CS(=O)(=O)c1ccc(-c2ncc(C(=O)NCc3cn(-c4cc(N5CCC(F)(F)CC5)ccn4)nn3)s2)cc1",
    "measured attribute": "pIC50",
    "reported value": 7.21
  }
]
